B1: Pistol ribozyme (parent)
chain: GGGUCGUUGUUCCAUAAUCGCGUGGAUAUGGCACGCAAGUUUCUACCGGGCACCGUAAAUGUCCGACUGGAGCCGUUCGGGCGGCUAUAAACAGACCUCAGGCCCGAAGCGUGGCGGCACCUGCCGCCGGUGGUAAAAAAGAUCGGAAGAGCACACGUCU

Variants of: B1
Assay: aptazyme ON/OFF ratio, guanine; higher = stronger switching; co-transcriptional cleavage with and without guanine
Measured aptazyme ON/OFF ratio of individual entries
Keep it simple and answer with nothing but the number.

Completed entries (count: 4):
variant.key: U7A G9U U10A C13U
aptazyme ON/OFF ratio: 1.35

variant.key: U7A G9U U11A C12U C13G
aptazyme ON/OFF ratio: 1.28

variant.key: G9A U10C U11G C12G
aptazyme ON/OFF ratio: 1.18

variant.key: U7A U8C G9U U11G C12A C13G
aptazyme ON/OFF ratio: 1.27

INPUT: Entry U7G G9U U10A U11C C13U has what aptazyme ON/OFF ratio?
OUTPUT: 1.18

INPUT: Please look up its aptazyme ON/OFF ratio: U8G G9C U10A U11C C12U
OUTPUT: 1.04

INPUT: What does the data say about its aptazyme ON/OFF ratio? Entry: U7C U8G G9U U10G C13U
OUTPUT: 1.2

INPUT: Query (variant): U7G U8G G9A U10C U11C C12A ; field requested: aptazyme ON/OFF ratio
OUTPUT: 1.22
